System: Echinochloa crus-galli (ECHCG)
Assay text: Test Example 1 pre-emergence herbicidal activity
Format: in vivo
Measurement context: Echinochloa crus-galli, 480 h, rate 250 g/ha, evaluated 20 days later, read-out: Pre-emergence activity ECHCG (100=total damage to plant; 0=no damage to plant)
For each entry below, report its pest or weed control at 250 g/ha value.
One number for each entry, in %.

Batch of 8 molecules: report pest or weed control at 250 g/ha for each.
1. Cc1cc(C)c(C2=C(O)[C@@H]3[C@@H]4O[C@@H](C[C@H]4c4cc(C(F)(F)F)nc(C(F)(F)F)c4)[C@@H]3C2=O)c(C)c1 (racemic)
2. COc1ccc([C@@H]2C[C@@H]3O[C@H]2[C@H]2C(O)=C(c4c(C)cc(C)cc4C)C(=O)[C@H]23)cc1 (racemic)
3. Cc1cc(C)c(C2=C(O)[C@@H]3[C@@H]4O[C@@H](C[C@H]4c4cnc5ccccc5n4)[C@@H]3C2=O)c(C)c1
4. CCc1cc(C)cc(CC)c1C1=C(O)[C@@H]2[C@@H]3O[C@@H](C[C@H]3c3ccc(OC(F)(F)F)cc3)[C@@H]2C1=O (racemic)
5. CCc1cc(C)cc(CC)c1C1=C(O)[C@@H]2[C@@H]3O[C@@H](C[C@H]3c3ccc(F)cc3)[C@@H]2C1=O
6. COc1cc(C)c(C2=C(O)[C@H]3[C@@H](C2=O)[C@@H]2CC[C@H]3O2)c(C)c1
7. Cc1cc(C)c(C2=C(O)[C@H]3[C@@H](C2=O)[C@]2(C)CC[C@@]3(C)O2)c(C)c1
8. CSC[C@]12C=C[C@H](O1)[C@@H]1C(=O)C(c3c(C)cc(C)cc3C)=C(O)[C@@H]12 (racemic)

Response line:
[80, 70, 60, 70, 80, 80, 90, 70]

Batch of 3 molecules: report pest or weed control at 250 g/ha for each.
1. CCc1cc(C)cc(CC)c1C1=C(O)[C@@H]2[C@@H]3O[C@@H](C[C@H]3c3cccc(Cl)c3)[C@@H]2C1=O
2. Cc1ccc([C@@H]2C[C@@H]3O[C@H]2[C@H]2C(O)=C(c4c(C)cc(C)cc4C)C(=O)[C@H]23)cc1 (racemic)
3. CCc1cc(C)cc(CC)c1C1=C(OC(=O)CCCCCCC(=O)OC)[C@H]2[C@@H](C1=O)[C@@H]1CC[C@H]2O1

Response line:
1. 80
2. 50
3. 100

Batch of 2 molecules: report pest or weed control at 250 g/ha for each.
1. CCc1cc(C)cc(CC)c1C1=C(O)[C@H]2[C@@H](C1=O)[C@@H]1CC[C@H]2O1
2. Cc1cc(C)c(C2=C(O)[C@@H]3[C@@H]4O[C@@H](C[C@H]4c4ccc(OC(F)(F)F)cc4)[C@@H]3C2=O)c(C)c1

Response line:
90
50

---

Test system: Echinochloa crus-galli (ECHCG)
Assay text: Test Example 1 pre-emergence herbicidal activity
Format: in vivo
Measurement context: Echinochloa crus-galli, 480 h, rate 250 g/ha, evaluated 20 days later, read-out: Pre-emergence activity ECHCG (100=total damage to plant; 0=no damage to plant)
Recorded endpoint: pest or weed control at 250 g/ha (%)
Give bare numbers, in %.

Observe how each entry below is paired with its result.
{"Compound": "Cc1cc(C)c(C2=C(O)[C@@H]3[C@@H]4O[C@@H](C[C@H]4c4cccc(C(F)(F)F)c4)[C@@H]3C2=O)c(C)c1", "Unit label": "%", "Observed value": 70}
{"Compound": "CCc1cc(C)cc(CC)c1C1=C(O)C2[C@@H](C1=O)[C@@H]1C[C@@H](c3ccc(OC)cc3)[C@H]2O1 (stereo partly shown)", "Unit label": "%", "Observed value": 70}

Batch of 6 compounds: report pest or weed control at 250 g/ha for each.
1. Cc1cc(C)c(C2=C(O)[C@@H]3[C@@H]4O[C@@H](C[C@H]4c4ccc([N+](=O)[O-])cc4)[C@@H]3C2=O)c(C)c1
2. CCc1cc(C)cc(CC)c1C1=C(O)[C@@H]2[C@@H]3O[C@@H](C[C@H]3c3cc([N+](=O)[O-])ccc3C)[C@@H]2C1=O (racemic)
3. Cc1cc(C)c(C2=C(O)[C@H]3[C@@H](C2=O)[C@@H]2C=C[C@@]3(CSC(C)C)O2)c(C)c1 (racemic)
4. CCc1cc(C)cc(CC)c1C1=C(O)[C@@H]2[C@@H]3O[C@@H](C[C@H]3c3cccc(C#N)c3)[C@@H]2C1=O
5. CCc1cc(C)cc(CC)c1C1=C(O)[C@@H]2[C@@H]3O[C@@H](C[C@H]3c3cccc(C(F)(F)F)c3)[C@@H]2C1=O
6. Cc1cc(C)c(C2=C(O)[C@@H]3[C@@H]4O[C@@H](C[C@H]4c4nc(C)cnc4C)[C@@H]3C2=O)c(C)c1

Response line:
1: 70; 2: 60; 3: 0; 4: 90; 5: 100; 6: 20

Batch of 3 compounds: report pest or weed control at 250 g/ha for each.
1. CCc1cc(C)cc(CC)c1C1=C(O)[C@@H]2[C@@H]3O[C@@H](C[C@H]3c3cc(C(F)(F)F)ccc3Cl)[C@@H]2C1=O
2. Cc1cc(C)c(C2=C(O)[C@@H]3[C@@H]4O[C@@H](C[C@H]4c4ccc(F)cc4)[C@@H]3C2=O)c(C)c1 (racemic)
3. CCc1cc(C)cc(CC)c1C1=C(OC(=O)C2CC2)[C@H]2[C@@H](C1=O)[C@@H]1CC[C@H]2O1 (racemic)

Response line:
1. 0
2. 100
3. 100

Batch of 4 compounds: report pest or weed control at 250 g/ha for each.
1. CCC(=O)OC1=C(c2c(CC)cc(C)cc2CC)C(=O)[C@@H]2[C@H]1[C@H]1CC[C@@H]2O1 (racemic)
2. Cc1cc(C)c(C2=C(O)[C@@H]3[C@@H]4O[C@@H](C[C@H]4c4ccc(C(F)(F)F)cn4)[C@@H]3C2=O)c(C)c1 (racemic)
3. CCc1cc(C)cc(CC)c1C1=C(O)[C@@H]2[C@@H]3O[C@@H](C[C@H]3c3ccc(C)c(F)c3)[C@@H]2C1=O
4. C=C[C@@H]1C[C@@H]2O[C@H]1[C@H]1C(O)=C(c3c(C)cc(C)cc3C)C(=O)[C@H]12 (racemic)

Response line:
100
90
80
100
